test system: foxtail, giant (giant foxtail, Setaria faberii); assay: Test A preemergence, foxtail, giant; assay type: in vivo; details: Setaria faberi, pre-emergence, 240 h, 31 g ai/ha, 0 to 100 scale (0 no effect, 100 complete control), read-out: Plant response rating, Foxtail, Giant
property_measured: pest or weed control at 31 g/ha (%)
Write the number in % without appending the unit.

Known results for molecules:
molecule: FC(F)(F)CCC1COc2cccc(Oc3ncc(Cl)cn3)c21 (centres unmarked)
value_unit: %
pest or weed control at 31 g/ha: 0

molecule: O=C1OCc2cccc(Oc3ncc(Cl)cn3)c2C1CCCCC(F)(F)F (centres unmarked)
value_unit: %
pest or weed control at 31 g/ha: 0

molecule: O=C1OC(CCCCC(F)(F)F)Cc2c(Oc3ncc(Cl)cn3)cccc21 (centres unmarked)
value_unit: %
pest or weed control at 31 g/ha: 0

molecule: O=C1CCC(CCCC(F)(F)F)c2c(Oc3ncc(Cl)cn3)cccc21 (centres unmarked)
value_unit: %
pest or weed control at 31 g/ha: 10

The recorded pest or weed control at 31 g/ha for O=C1OCc2cccc(Oc3ncc(Cl)cn3)c2C1CCC(F)(F)F (centres unmarked) is 0

----------
tested on: kochia (Kochia scoparia); assay: Test A postemergence, kochia; type: in vivo; conditions: Bassia scoparia, post-emergence, 240 h, 31 g ai/ha, 0 to 100 scale (0 no effect, 100 complete control), read-out: Plant response rating, Kochia
Param label: returns Criterion met when pest or weed control at 31 g/ha < 10%, returns Criterion not met otherwise, including exact equality.

// below: answered compounds
compound: O=C1NC(CCCC(F)(F)F)c2c(Oc3ncc(Cl)cn3)cccc21 (stereo not drawn)
classification: Criterion met
--
compound: O=C1OCc2cccc(Oc3ncc(Cl)cn3)c2C1CCCCC(F)(F)F (stereo not drawn)
classification: Criterion not met
--
compound: FC(F)(F)CCC1OCCc2cccc(Oc3ncc(Cl)cn3)c21 (stereo not drawn)
classification: Criterion met

QUERY: Report whether reported pest or weed control at 31 g/ha is lower than 10% (strictly) for FC(F)(F)CCC1OCc2cccc(Oc3ncc(Cl)cn3)c21 (stereo not drawn)
RESULT: Criterion not met

QUERY: Check if pest or weed control at 31 g/ha falls below 10% for FC(F)(F)CCCC1OCc2cccc(Oc3ncc(Cl)cn3)c21 (stereo not drawn) .
RESULT: Criterion not met

QUERY: A record lists O=C1COC(CCCC(F)(F)F)c2c(Oc3ncc(Cl)cn3)cccc21 (stereo not drawn) . Is its pest or weed control at 31 g/ha below 10%?
RESULT: Criterion met

----------
pest or weed control at 31 g/ha values for the compounds below.
test system: foxtail, green (green foxtail, Setaria viridis); assay: Test A postemergence, foxtail, green; assay type: in vivo; details: Setaria, post-emergence, 240 h, 31 g ai/ha, 0 to 100 scale (0 no effect, 100 complete control), read-out: Plant response rating, Foxtail, Green
Kindly answer with a numeric value in %, unit omitted.

compound: O=C1O[C@H](CCCC(F)(F)F)c2c(Oc3ncc(Cl)cn3)cccc21 [Compound 3]
value_unit: %
pest or weed control at 31 g/ha: 40

Kindly note the recorded pest or weed control at 31 g/ha for O=C1NC(CCCC(F)(F)F)c2c(Oc3ncc(Cl)cn3)cccc21 (stereo not drawn) [Compound 13] , which is 0

Item: OC1CC(CCCC(F)(F)F)c2c(Oc3ncc(Cl)cn3)cccc21 (stereo not drawn) [Compound 10] | pest or weed control at 31 g/ha: 10

The reported measurements were obtained from patent US11427549B2.
